- Tested target: p38α (Homo sapiens)
- Construct: p38 MAP Kinases are recombinant human full-length proteins with an amino-terminal GST fusion; GST (N); purchased Upstate Biotechnology Inc; host or cells: E. coli
- Assay details: p38 MAP Kinase assay: inhibition of ATF2 phosphorylation, ELISA
- Type: biochemical
- Condition details: ATF2 phosphorylation; read-out: [ENZ] P38 ALPHA, IC50, ELISA
Result type: IC50 (nM)
One number for each entry, in nM.

Example entries begin here.
{"columns": ["Molecule", "Result type", "Value reported"],
 "data": [
  ["O=C(Nc1ccc(Oc2ccnc(NCC3CCCO3)n2)c2ccccc12)c1cc(F)cc(N2CCCCC2)c1 (centres unmarked)", "IC50", 1.8],
  ["CC(C)(C)OC(=O)NC1CCN(c2nccc(Oc3ccc(NC(=O)c4cc(F)cc(N5CCOCC5)c4)c4ccccc34)n2)CC1", "IC50", 28.3],
  ["COCC(C)Nc1nccc(Oc2ccc(NC(=O)c3cc(F)cc(N4CCOCC4)c3)c3ccccc23)n1 (centres unmarked)", "IC50", 3.9],
  ["O=C(Nc1ccc(Oc2ccnc(N3CCCC3)n2)c2ccccc12)c1cc(F)cc(N2CCOCC2)c1", "IC50", 8.2],
  ["O=C(Nc1ccc(Oc2ccnc(N3CCCC(O)C3)n2)c2ccccc12)c1cc(F)cc(N2CCOCC2)c1 (centres unmarked)", "IC50", 5.2],
  ["Cc1ncsc1CCOc1ccc(NC(=O)c2cc(F)cc(N3CCCCC3)c2)c2ccccc12", "IC50", 39.9],
  ["CC(=O)N1CCN(CCCOc2ccc(NC(=O)c3cc(F)cc(N4CCCCC4)c3)c3ccccc23)CC1", "IC50", 997],
  ["CCN1CCC[C@H]1CNc1nccc(Oc2ccc(NC(=O)c3cc(F)cc(N4CCOCC4)c3)c3ccccc23)n1", "IC50", 22.5]
]}

Below is a list of molecules. For each, state its recorded IC50.
1. CC1CCC(Oc2cc(F)cc(C(=O)Nc3ccc(OCCN4CCOCC4)c4ccccc34)c2)C1 (centres unmarked)
2. O=C(Nc1ccc(Oc2ccnc(N3CCC(O)C3)n2)c2ccccc12)c1cc(F)cc(N2CCCCC2)c1 (centres unmarked)
3. O=C(Nc1ccc(OCCN2CCOCC2)c2ccccc12)c1cccc(-n2cccc2)c1
4. CSc1nccc(-c2ccc(NC(=O)c3cc(F)cc(N4CCOCC4)c3)c3ccccc23)n1
5. COc1ccc(F)cc1-c1cccc(C(=O)Nc2ccc(OCCN3CCOCC3)c3ccccc23)c1

Output:
1: 808; 2: 16.8; 3: 1190; 4: 1650; 5: 1470

---

- Tested target: p38α (Homo sapiens, UniProt Q16539)
- Construct: p38 MAP Kinases are recombinant human full-length proteins with an amino-terminal GST fusion; GST (N); purchased Upstate Biotechnology Inc; host or cells: E. coli
- Sequence (Q16539 whole entry, the tested form may be a part): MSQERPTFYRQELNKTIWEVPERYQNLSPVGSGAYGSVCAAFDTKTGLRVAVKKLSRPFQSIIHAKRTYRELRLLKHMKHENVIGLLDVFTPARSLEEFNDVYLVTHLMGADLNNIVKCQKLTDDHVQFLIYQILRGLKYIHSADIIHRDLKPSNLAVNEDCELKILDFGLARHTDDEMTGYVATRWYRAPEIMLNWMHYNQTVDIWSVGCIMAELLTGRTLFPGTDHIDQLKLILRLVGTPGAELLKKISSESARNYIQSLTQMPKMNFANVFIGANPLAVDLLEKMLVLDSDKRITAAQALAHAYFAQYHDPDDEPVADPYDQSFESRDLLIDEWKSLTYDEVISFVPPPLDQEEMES
- Assay details: p38 MAP Kinase assay: inhibition of ATF2 phosphorylation, ELISA
- Assay type: biochemical
- Condition details: ATF2 phosphorylation; read-out: [ENZ] P38 ALPHA, IC50, ELISA
Result type: pIC50
Numbers only, as −log10 of the molar value.

Some compounds with known pIC50 results, for comparison:
{"columns": ["Smiles input", "pIC50"],
 "data": [
  ["O=C(Nc1ccc(OCCN2CCOCC2)c2ccccc12)c1cccc(-c2cccc(Cl)c2Cl)c1", 5.43],
  ["CN(CCO)c1nccc(Oc2ccc(NC(=O)c3cc(F)cc(N4CCCCC4)c3)c3ccccc23)n1", 7.68],
  ["CC1=NCCN1c1nccc(Oc2ccc(NC(=O)c3cc(F)cc(N4CCCCC4)c3)c3ccccc23)n1", 7.90],
  ["O=C(Nc1ccc(OCCN2CCOCC2)c2ccccc12)c1cc(F)cc(OC2CCCCC2)c1", 6.38]
]}

Please look at the items below and tell me pIC50 for each one, in order.
1. O=C(Nc1ccc(OCCN2CCOCC2)c2ccccc12)c1cccc(-c2cc(F)cc(F)c2)c1
2. O=C(Nc1ccc(Oc2ccnc(N3CCCCC3)n2)c2ccccc12)c1cc(F)cc(N2CCOCC2)c1
3. COc1ccc(CCOc2ccc(NC(=O)c3cc(F)cc(N4CCCCC4)c3)c3ccccc23)cc1OC

Output:
1: 5.79; 2: 7.72; 3: 5.98

Hey, quick one: what's pIC50 for each of these?
1. COCCN(C)c1nccc(Oc2ccc(NC(=O)c3cc(F)cc(N4CCOCC4)c3)c3ccccc23)n1
2. Cc1cc(Cl)ccc1-c1cccc(C(=O)Nc2ccc(OCCN3CCOCC3)c3ccccc23)c1
3. CN1CCN(c2nccc(Oc3ccc(NC(=O)c4cc(F)cc(N5CCCCC5)c4)c4ccccc34)n2)CC1
4. O=C(Nc1ccc(Oc2ccnc(NC3CC3)n2)c2ccccc12)c1cc(F)cc(N2CCOCC2)c1
5. O=C(Nc1ccc(Oc2ccnc(NC3CCC3)n2)c2ccccc12)c1cc(F)cc(N2CCOCC2)c1
6. Cc1ccc(C(=O)Nc2ccc(OCCN3CCOCC3)c3ccccc23)cc1N1CCOCC1
7. O=C(Nc1ccc(OCCN2CCOCC2)c2ccccc12)c1cccc(-c2cccc(F)c2F)c1

Output:
[7.68, 4.99, 8.08, 8.51, 8.43, 5.60, 5.56]
